Target: human LXRβ (Homo sapiens, UniProt P55055)
Construct: expressed in transfected cells; host or cells: HEK293 cells (ATCC CRL-1573), transient transfection with pFA-hLXRβ/GAL4 and pUAS
Sequence (P55055 222-460 limits assumed): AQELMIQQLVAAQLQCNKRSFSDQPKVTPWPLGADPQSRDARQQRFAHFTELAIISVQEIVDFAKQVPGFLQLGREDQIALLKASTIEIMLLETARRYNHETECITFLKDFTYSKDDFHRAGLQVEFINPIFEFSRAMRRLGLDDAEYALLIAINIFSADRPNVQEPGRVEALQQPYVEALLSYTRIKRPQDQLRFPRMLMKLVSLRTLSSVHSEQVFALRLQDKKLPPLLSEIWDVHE
Assay: Assay for Transcriptional Activity of LXRβ (GAL4-hLXRβ LBD luciferase reporter, transient transfection)
Assay type: cell-based
Conditions: fold value in comparison with the control (DMSO-treated group); HEK293 cells transfected with pFA-hLXRβ/GAL4 and pUAS; 24 hours
Measured Emax accompanies every entry in the list below.
readoutType: Emax

[[record]]
molecule = "COc1ccc(-c2ccc(C3CC(C(O)(C(F)(F)F)C(F)(F)F)=NN3c3ccc(F)cc3F)cc2)cn1 (stereo not drawn)"
system = "human LXRβ (Homo sapiens, UniProt P55055)"
endpointresult = "36 fold"

[[record]]
molecule = "OC(C1=NN(c2ccccc2Cl)C(c2ccc(-c3cccc(OC(F)(F)F)c3)cc2)C1)(C(F)(F)F)C(F)(F)F (stereo not drawn)"
system = "human LXRβ (Homo sapiens, UniProt P55055)"
endpointresult = "43 fold"

[[record]]
molecule = "COc1ncc(-c2cccc(C3CC(C(F)(F)C(F)(F)F)=NN3c3ccc(F)cc3F)c2)cc1C=O (stereo not drawn)"
system = "human LXRβ (Homo sapiens, UniProt P55055)"
endpointresult = "13 fold"

